- assayedTarget: Cytochrome P450 3A4 (Homo sapiens)
- assayOverview: Cytochrome panel assay with activity outcomes; further: on the % scale 0 is the no-effect control and ±100 the full control effect
- measurementSetup: recombinant CYP, pro-luciferin dealkylation, luminescence, p450-cyp3a4; series mostly up to 57.1 µM
Out of some 16,000 compounds screened, about 5,100 (32%) were called active. About 25% were inconclusive and are not listed. The list shows a part of the results.
endpointName: activity, negative = inhibition

Example entries begin here.
>  <molecule>
CCN1C(=O)[C@H]2[C@H]3[C@H](O)[C@H](O)C/C(=N/OCC(C)C)[C@H]3CC[C@@H]2C1=O

>  <measuredResult>
19.2% [at 11.4 µM] (inactive)

$$$$
>  <molecule>
O=C1CN2CCN(CC2)CC(=O)Nc2ccc(cc2)S(=O)(=O)c2ccc(cc2)NC(=O)CN2CCN(CC2)CC(=O)Nc2ccc(cc2)S(=O)(=O)c2ccc(cc2)N1

>  <measuredResult>
-29.8% [at 11.4 µM] (inactive)

$$$$

Hey, quick one: what's activity, negative = inhibition for each of these?
1. CC(=O)OC[C@@H]1O[C@@H](O/N=C2/C[C@@H](O)[C@@H](O)[C@@H]3[C@@H]4C(=O)N(Cc5ccccc5)C(=O)[C@H]4CC[C@@H]23)[C@H](OC(C)=O)[C@H](OC(C)=O)[C@@H]1OC(C)=O
2. CCCS(=O)(=O)N1CCCC(C(=O)NCc2cccnc2)C1 (stereo not drawn)
3. COc1c(NC(C)=O)c2ccccc2c2ccccc12
4. CN1CCc2[nH]nc(-c3n[nH]c4c3CN(C)CC4)c2C1
5. Cc1ccc(NC(=O)c2nnn(-c3cc(C)cc(C)c3)c2N)cc1
6. O=C(Nc1ccc2c(c1)Cc1ccccc1-2)[C@@H]1[C@H](C(=O)O)[C@]2(Cl)C(Cl)=C(Cl)[C@@]1(Cl)C2(Cl)Cl

Found:
1. -27.9% [at 11.4 µM] (inactive)
2. -7.24% [at 2.29 µM] (inactive)
3. -28.7% [at 11.4 µM] (inactive)
4. -6.16% [at 11.4 µM] (inactive)
5. 5.32% [at 2.29 µM] (inactive)
6. -22% [at 11.4 µM] (inactive)

====

- assayedTarget: Cytochrome P450 3A4 (Homo sapiens) (UniProt P08684)
- Sequence (P08684 whole entry, looked up): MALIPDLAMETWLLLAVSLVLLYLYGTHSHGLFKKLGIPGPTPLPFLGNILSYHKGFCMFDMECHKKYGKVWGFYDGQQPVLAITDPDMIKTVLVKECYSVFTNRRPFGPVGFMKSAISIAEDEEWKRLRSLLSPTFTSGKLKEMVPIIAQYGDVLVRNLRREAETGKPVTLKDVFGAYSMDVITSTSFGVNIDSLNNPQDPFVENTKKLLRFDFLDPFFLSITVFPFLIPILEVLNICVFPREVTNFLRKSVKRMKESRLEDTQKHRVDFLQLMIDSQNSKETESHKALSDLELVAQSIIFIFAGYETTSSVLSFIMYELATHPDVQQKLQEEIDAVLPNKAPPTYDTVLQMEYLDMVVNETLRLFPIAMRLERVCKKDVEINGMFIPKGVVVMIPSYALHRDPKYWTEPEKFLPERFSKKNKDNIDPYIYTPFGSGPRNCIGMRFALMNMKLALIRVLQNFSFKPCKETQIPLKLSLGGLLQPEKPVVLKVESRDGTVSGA
- assayOverview: Cytochrome panel assay with activity outcomes; further: on the % scale 0 is the no-effect control and ±100 the full control effect
- measurementSetup: recombinant CYP, pro-luciferin dealkylation, luminescence, p450-cyp3a4; series mostly up to 57.1 µM
The whole screen tested about 16,000 compounds, of which about 5,100 (32%) were called active. Roughly 25% stayed inconclusive and do not appear here. Some of the results follow. Square brackets hold non-standard residues; d marks the D form. Peptide text beside a SMILES is read from it.
Please go through the items and note down their activity, negative = inhibition.

Lab note: each compound below needs its activity, negative = inhibition filled in.
1. O=C(O)Cc1ccc2c(c1)N(S(=O)(=O)c1cccc(C(F)(F)F)c1)CC(C(=O)O)O2 (stereo unspecified)
2. O=C(NC(=S)NNC(=O)c1cccs1)c1ccco1
3. O=C(O)C/C(=C\c1ccco1)C(=O)O
4. O=C(/C=C/c1ccco1)NC(=S)Nc1ccc(N2CCOCC2)c(Cl)c1
5. O=C(NCc1ccccc1)c1cccc(COc2cccc(Cl)c2)c1
6. N[C@H](CO)C(=O)NCC(=O)O (H-[dS]-Gly-OH)

Found:
1: -7.46% [at 2.29 µM] (inactive); 2: -0.791% [at 2.29 µM] (inactive); 3: -18.3% [at 11.4 µM] (inactive); 4: 12.4% [at 2.29 µM] (inactive); 5: -29.3% [at 11.4 µM] (inactive); 6: -1.48% [at 11.4 µM] (inactive)
